Assign pKi to each entry below.
experimentalSystem: T1, MDM2 (In-house, 41 kD) (UniProt Q00987 1-125, limits assumed)
T1 construct: Construct limits and any tag are unknown; also called HDM2
T1 sequence (Q00987 1-125 limits assumed): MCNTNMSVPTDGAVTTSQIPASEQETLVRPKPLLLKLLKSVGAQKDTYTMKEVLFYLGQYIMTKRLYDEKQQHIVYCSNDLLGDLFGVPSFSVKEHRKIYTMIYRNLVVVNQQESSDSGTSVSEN
assayRemarks: competitive fluorescence polarization, displacement of FAM-labeled linear peptide from MDM2; grade decoded by the scale of Table 4
pKi: −log10 of the molar value.

Any idea what its pKi is? The binder is LTFAQYWAQLAAAAAAA (not fully specified; N-terminal acetyl; $r8 (alpha-Me R8-octenyl-alanine) at 4 crosslinked by all-carbon olefin staple to $ (alpha-Me S5-pentenyl-alanine) at 11; D-Ala (a) at C-terminus; C-terminal amide, stapled peptidomimetic macrocycle) [SP600, Ac-LTF$r8QYWAQL$AAAAAa-NH2]
≥ 8.00

How about LTFAFYWAQLAAAAAAA (not fully specified; N-terminal acetyl; $r8 at 4 crosslinked by all-carbon olefin staple to $ at 11; F4g at 5 (abbreviation not defined in the filing); D-Ala (a) at C-terminus; C-terminal amide, stapled peptidomimetic macrocycle) [SP603, Ac-LTF$r8F4gYWAQL$AAAAAa-NH2] ?
≥ 8.00

Okay, and LTFASYWAQAASAA (not fully specified; N-terminal acetyl; $r8 at 4 crosslinked by all-carbon olefin staple to $ at 11; Cba (cyclobutyl alanine) at 10; C-terminal amide; single isomer iso2, stapled peptidomimetic macrocycle, isomer iso2) [SP713, Ac-LTF$r8SYWAQCba$SAA-NH2 (iso2)] ?
≥ 8.00

Let us now turn to LTFAEYWXQAASAA (not fully specified; N-terminal acetyl; $r8 at 4 crosslinked by all-carbon olefin staple to $ at 11; Cou7 at 8 (structure shown only as a drawing); Cba (cyclobutyl alanine) at 10; C-terminal amide, stapled peptidomimetic macrocycle) [SP433, Ac-LTF$r8EYWCou7QCba$SAA-NH2]
≥ 8.00
